Test system: Pseudomonas aeruginosa
run_description: In vitro antibacterial activity against Pseudomonas aeruginosa E-2
Type: functional
condition_parameters: Pseudomonas aeruginosa; read-out: MIC
property_measured: MIC (µg/mL)

Below: 10 compounds and their reported MIC.
compound="CC1Sc2c(C(=O)O)c(=O)c3cc(F)c(N4CCCNCC4)cc3n21 (configuration not stated)" uom=µg/mL measurement=3.13
compound="CC1Sc2c(C(=O)O)c(=O)c3cc(F)c(N4CCN(C)CC4)cc3n21 (configuration not stated)" uom=µg/mL measurement=0.39
compound="CC1Sc2c(C(=O)O)c(=O)c3cc(Cl)c(N4CCN(C)CC4)cc3n21 (configuration not stated)" uom=µg/mL measurement=1.56
compound="CC1Sc2c(C(=O)O)c(=O)c3cc(F)c(N4CCSCC4)cc3n21 (configuration not stated)" uom=µg/mL measurement=0.39
compound="CC(=O)N1CCN(c2cc3c(cc2F)c(=O)c(C(=O)O)c2n3C(C)S2)CC1 (configuration not stated)" uom=µg/mL measurement=6.25
compound="CC1Sc2c(C(=O)O)c(=O)c3cc(F)c(N4CCN(CCO)CC4)cc3n21 (configuration not stated)" uom=µg/mL measurement=1.56
compound=Cl.O.O=C(O)c1c2n(c3cc(N4CCNCC4)c(F)cc3c1=O)CS2 uom=µg/mL measurement=0.78
compound=O=C(O)c1c2n(c3cc(N4CCNCC4)c(Cl)cc3c1=O)CS2 uom=µg/mL measurement=6.25
compound="O=C(O)c1c2n(c3cc(N4CCNCC4)c(F)cc3c1=O)C(c1ccccc1F)S2 (configuration not stated)" uom=µg/mL measurement=3.13
compound="CCN1CCN(c2cc3c(cc2F)c(=O)c(C(=O)O)c2n3C(C)S2)CC1 (configuration not stated)" uom=µg/mL measurement=0.78

(I) CN1CCN(c2cc3c(cc2F)c(=O)c(C(=O)O)c2n3CS2)CC1
(II) C=CCN1CCN(c2cc3c(cc2F)c(=O)c(C(=O)O)c2n3C(C)S2)CC1 (configuration not stated)
(III) CC1Sc2c(C(=O)O)c(=O)c3cc(F)c(N4CCNC(=O)C4)cc3n21 (configuration not stated)
(IV) CN1CCN(c2cc3c(cc2F)c(=O)c(C(=O)O)c2n3C(c3ccccc3)S2)CC1 (configuration not stated)
Kindly order the items shown according to MIC, from the highest value down. Record the ranking as a list of labels in the requested order.
III, IV, II, I

(1) CC1Sc2c(C(=O)O)c(=O)c3cc(F)c(N4CCOCC4)cc3n21 (configuration not stated)
(2) CC1Sc2c(C(=O)O)c(=O)c3cc(F)c(-n4ccnc4)cc3n21 (configuration not stated)
(3) CC(C)N1CCN(c2cc3c(cc2F)c(=O)c(C(=O)O)c2n3C(C)S2)CC1 (configuration not stated)
(4) O=C(O)c1c2n(c3cc(N4CCNCC4)c(F)cc3c1=O)C(c1ccccc1)S2 (configuration not stated)
List by increasing MIC. Record the ranking as a list of labels in the requested order.
4, 1, 3, 2
(4: 0.2 µg/mL, 1: 0.39 µg/mL, 3: 1.56 µg/mL, 2: 3.13 µg/mL)

(P) O=C(O)c1c2n(c3cc(N4CCNCC4)c(F)cc3c1=O)C(c1ccc(F)cc1)S2 (configuration not stated)
(Q) CN1CCN(c2cc3c(cc2F)c(=O)c(C(=O)O)c2n3C(c3ccc(F)cc3F)S2)CC1 (configuration not stated)
Sort P and Q by MIC descending and give the first. Refer to your chosen item by its label in the answer.
Q
(Q: 3.13 µg/mL, P: 0.39 µg/mL)
